These measurements were taken from PubChem BioAssay (NCI).

Tested on: SN12C renal
Experiment: NCI-60 one-dose screen, 48 h
Details: 10 µM unless noted
The panel holds about 83,000 compounds, 20% with a hit somewhere; the sample as a whole holds those more often. Activity calls are given as the source filed them. Rule for the calls: active = growth percent below 10; inactive = the rest.
Your reply should match one of these outcome classes. label 1 = active, label 0 = inactive

Some solved cases for reference:
COc1ccc2[nH]c3nc4cnccc4cc3c2c1	label 0
CCOc1ccc(C2N(c3cc(OC)c(OC)c(OC)c3)C(=O)C2(F)F)cc1 (stereo not drawn)	label 0
O=c1[nH]c2ccccc2cc1-c1nc2ccc(Cl)cc2[nH]1	label 0
N#Cc1ccc(N2Cc3cc(Cl)ccc3OC3=C2C(=O)N(Cc2ccc(F)cc2)C3=O)cc1	label 1
O=C1CCc2ccccc2N1	label 0
CC1(C)Cc2c(Br)c(Br)c(Br)c(OCC(O)CN3CCOCC3)c2O1 (stereo not drawn)	label 0
O=c1[nH]nc(-c2ccc(Br)cc2)c2sc(NC(=S)Nc3ccc(Cl)cc3)nc12	label 0
Nc1c(C(=O)c2ccccc2)sc2nc(-c3cc4ccccc4o3)cc(-c3ccc(Cl)cc3)c12	label 0
CCCCC(=O)Nc1c(C(=O)Nc2ccccc2)sc2nc3c(cc12)C(OC(=O)CCCC)CCC3 (stereo not drawn)	label 0
O=C1CC(c2ccc(O)c(O)c2)Oc2cc(O)c([C@@H]3O[C@H](CO)[C@@H](O)[C@H](O)[C@H]3O)c(O)c21 (stereo partly drawn)	label 0

Moving on to the next molecule.
Could you check what this test reported for `Cc1nnc(/N=C2\NC(=O)/C(=C/c3ccc(N(C)C)cc3)S2)s1` ?
label 0
